The values you see were collected from paper PMC12655371.

Test: derived from PAMPA membrane permeability
Settings: n-hexadecane (PAMPA-derived); buffer (PAMPA)
readoutKind: hexadecane/water partition coefficient derived from PAMPA flux (Khex/w)

Below, 5 compounds whose answers are already recorded.
{"columns": ["compound", "measured"],
 "data": [
  ["Cc1c(O)cccc1C(=O)N[C@@H](CSc1ccccc1)[C@H](O)CN1C[C@H]2CCCC[C@H]2C[C@H]1C(=O)NC(C)(C)C", "0.398 K (ratio)"],
  ["CC(C)CN(C[C@@H](O)[C@H](Cc1ccccc1)NC(=O)O[C@H]1CCOC1)S(=O)(=O)c1ccc(N)cc1", "0.01885 K (ratio)"],
  ["CC(C)(C)c1ccc(C(O)CCCN2CCC(C(O)(c3ccccc3)c3ccccc3)CC2)cc1 (stereo not drawn)", "34105.6131886465 K (ratio)"],
  ["CN1CCC[C@@H]1Cc1c[nH]c2ccc(CCS(=O)(=O)c3ccccc3)cc12", "1.2 K (ratio)"],
  ["c1ccc2c(c1)Sc1ccccc1N2CC1CN2CCC1CC2 (stereo not drawn)", "2951 K (ratio)"]
]}

# lookup: hexadecane/water partition coefficient derived from PAMPA flux (Khex/w) of `Clc1ccc2c(c1)CCc1cccnc1C2=C1CCNCC1` 99.11 K (ratio)
